Entries and their measured GI50 follow.
System: A549 (non-small cell lung)
Method Notes: Antiproliferative activity, A549
Assay type: cell-based, human
Assay Conditions: Homo sapiens
The answer is to be given in µM; state only the numeric part.

1) COc1ccc(-c2c[se]c(NN=Cc3ccccc3[N+](=O)[O-])n2)cc1 [Compound 2-OMe] = 22

Now for a further molecule.
Return reported GI50. Input molecule: COc1ccc(-c2c[se]c(NN=Cc3ccc([N+](=O)[O-])cc3)n2)cc1 [Compound 4-OMe]
16

---

Entries and their measured inhibition at 1 µM follow.
Target System: MAO B (Homo sapiens)
Construct: purchased Sigma-Aldrich
Sequence (P27338 whole entry): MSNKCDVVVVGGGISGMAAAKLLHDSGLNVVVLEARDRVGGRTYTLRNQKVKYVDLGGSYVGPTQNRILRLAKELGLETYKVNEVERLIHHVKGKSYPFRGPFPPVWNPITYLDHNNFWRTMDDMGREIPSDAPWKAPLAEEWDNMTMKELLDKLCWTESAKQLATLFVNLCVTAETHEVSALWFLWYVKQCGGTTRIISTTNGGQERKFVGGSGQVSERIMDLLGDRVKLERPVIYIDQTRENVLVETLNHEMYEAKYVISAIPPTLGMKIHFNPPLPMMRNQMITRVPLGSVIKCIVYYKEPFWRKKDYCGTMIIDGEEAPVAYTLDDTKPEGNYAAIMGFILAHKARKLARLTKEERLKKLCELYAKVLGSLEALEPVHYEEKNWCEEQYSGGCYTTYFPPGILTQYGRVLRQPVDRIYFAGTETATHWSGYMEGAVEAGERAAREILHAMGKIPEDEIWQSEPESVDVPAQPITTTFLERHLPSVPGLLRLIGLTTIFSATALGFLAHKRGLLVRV
Method Notes: MAO B inhibition, discontinuous fluorimetric kynuramine assay
Type: biochemical
Assay Conditions: 1 μM inhibitor; mean ± SD, n = 2; normalized to control
The answer is to be given in %; state only the numeric part.

1. COc1ccc(-c2c[se]c(NN=Cc3ccccc3)n2)cc1 = 33

Return reported inhibition at 1 µM. Input molecule: "C(=NNc1nc(-c2ccccc2)c[se]1)c1ccccc1"
89.4

Return reported inhibition at 1 µM. Input molecule: "Cc1ccc(-c2c[se]c(NN=Cc3cccc([N+](=O)[O-])c3)n2)cc1"
7.4

Return reported inhibition at 1 µM. Input molecule: "O=[N+]([O-])c1cccc(C=NNc2nc(-c3ccccc3)c[se]2)c1"
57.5

Return reported inhibition at 1 µM. Input molecule: "COc1ccc(-c2c[se]c(NN=Cc3ccccc3[N+](=O)[O-])n2)cc1"
35.9

The values you see were collected from paper PMC6037691.
